# Tested on: IGROV-ET
# Assay Text: SRB colorimetric assay of cell growth and viability, IGROV-ET
# Assay type: cell-based, human
# Test Context: IGROV-ET; 48 hours exposure; read-out: LC50 IGROV-ET
Where a SMILES comes first, the peptide text is derived from it. Bridges are numbered along the chain shown (N, C = ends). [ ]: non-standard residue; d: D form. The star is where a group is joined. d(aIle) = CC[C@H](C)[C@@H](N)C(=O)O; d(aThr) = C[C@@H](O)[C@@H](N)C(=O)O; Hexanoyl(5-Me) = CC(C)CCCC(=O)*; Orn = NCCC[C@H](N)C(=O)O; Dhb = C/C=C(\N)C(=O)O
So I've got a bunch of compounds here, and I need their CC50 values.
Entry format: amount then unit.

Below: 4 compounds and their reported CC50.
C/C=C1\NC(=O)[C@H](Cc2cccc(Cl)c2)NC(=O)[C@@H](C(C)C)NC(=O)[C@@H]([C@@H](C)CC)NC(=O)[C@H](NC(=O)[C@H](NC(=O)[C@H](CCCN)NC(=O)[C@H]2CCCN2C(=O)[C@H](NC(=O)[C@@H](NC(=O)[C@@H](NC(=O)[C@H](NC(=O)CCCC(C)C)C(C)C)[C@@H](C)O)C(C)C)C(C)C)[C@@H](C)CC)[C@@H](C)OC(=O)[C@H](C(C)C)NC1=O [Compound 82, [Phe(3-Cl)^3]-KF] | 0.576 µM
C/C=C1\NC(=O)[C@H](Cc2ccccc2)NC(=O)[C@@H](C(C)C)NC(=O)[C@@H]([C@@H](C)CC)NC(=O)[C@H](NC(=O)[C@H](NC(=O)[C@H](CCCN)NC(=O)[C@H]2CCCN2C(=O)[C@H](NC(=O)[C@@H](NC(=O)CNC(=O)[C@H](NC(=O)CCCC(C)C)C(C)C)C(C)C)C(C)C)[C@@H](C)CC)[C@@H](C)OC(=O)[C@H](C(C)C)NC1=O [Compound 111, [Gly^12]-KF] ({Hexanoyl(5-Me)}-[dV]GV[dV][dP][Orn][d(aIle)][d(aThr)][d(aIle)][dV]F[Dhb]V; ester 8-C) | 6.97 µM
C/C=C1\NC(=O)[C@H](Cc2ccccc2)NC(=O)[C@@H](C(C)C)NC(=O)[C@@H]([C@@H](C)CC)NC(=O)[C@H](NC(=O)[C@H](NC(=O)[C@H](CCCN)NC(=O)[C@H]2CCCN2C(=O)[C@H](NC(=O)[C@@H](NC(=O)[C@H](Cc2ccccc2)NC(=O)[C@H](NC(=O)CCCC(C)C)C(C)C)C(C)C)C(C)C)[C@@H](C)CC)[C@@H](C)OC(=O)[C@H](C(C)C)NC1=O [Compound 114, [Phe^12]-KF] ({Hexanoyl(5-Me)}-[dV]FV[dV][dP][Orn][d(aIle)][d(aThr)][d(aIle)][dV]F[Dhb]V; ester 8-C) | 6.38 µM
C/C=C1\NC(=O)[C@H](Cc2ccccc2)NC(=O)[C@@H](C(C)C)NC(=O)[C@@H]([C@@H](C)CC)NC(=O)[C@H](NC(=O)[C@H](NC(=O)[C@H](CCCN)NC(=O)[C@H]2CCCN2C(=O)[C@H](NC(=O)[C@@H](NC(=O)[C@@H](NC(=O)[C@@H](CCCN)NC(=O)CCCC(C)C)[C@@H](C)O)C(C)C)C(C)C)[C@@H](C)CC)[C@@H](C)OC(=O)[C@H](C(C)C)NC1=O [Compound 118, [D-Orn^13]-KF] | 6.7 µM

Consider the additional compound presented here.
CC50 of [2H]C([2H])([2H])C([2H])(C([2H])([2H])[2H])[C@]([2H])(NC(=O)[C@@H](NC(=O)[C@H](NC(=O)CCCC(C)C)C(C)C)[C@@H](C)O)C(=O)N[C@@H](C(=O)N1CCC[C@@H]1C(=O)N[C@@H](CCCN)C(=O)N[C@@H](C(=O)N[C@H]1C(=O)N[C@H]([C@@H](C)CC)C(=O)N[C@H](C(C)C)C(=O)N[C@@H](Cc2ccccc2)C(=O)N/C(=C\C)C(=O)N[C@@H](C(C)C)C(=O)O[C@@H]1C)[C@@H](C)CC)C(C)C [Compound 100, [L-Val-d8^11]-KF] on IGROV-ET? 1.75 µM
